Measured MIC by item
# System: Staphylococcus aureus
# method_notes: Antibacterial activity against Staphylococcus aureus ATCC 25923 after 24 hr by two fold microdilution technique
# Assay type: functional
# applied_conditions: ATCC 25923, 24 h
measure: MIC (µg/mL)

compound | recorded_result
O=C1CSc2cc(Cl)ccc2N1C1CCCCC1 | 16
O=C1CSc2c(Cl)cccc2N1CC1CCCO1 (stereo not given) | 32
O=C1CSc2c(Cl)cccc2N1C1CCCCC1 | 16
CCCCCCN1C(=O)CSc2c(Cl)cccc21 | 32
CN[C@@H]1[C@H](O[C@H]2[C@H](O[C@H]3[C@H](O)[C@@H](O)[C@H](N=C(N)N)[C@@H](O)[C@@H]3N=C(N)N)O[C@@H](C)[C@]2(O)C=O)O[C@@H](CO)[C@H](O)[C@H]1O | 2

----------
# Test system: Micrococcus luteus
# method_notes: Antibacterial activity against Micrococcus luteus NCTC 2665 after 24 hr by two-fold microdilution technique
# Assay type: functional
# applied_conditions: NCTC 2665, 24 h
Reported values of MIC for individual entries
measure: MIC (µg/mL)

compound | system_name | recorded_result
O=C1CSc2ccc(Cl)cc2N1CC1CCCO1 (stereo not given) | Micrococcus luteus | 32
O=C1CSc2cccc(Cl)c2N1C1CCCCC1 | Micrococcus luteus | 16
CCCCCCN1C(=O)CSc2cccc(Cl)c21 | Micrococcus luteus | 32
O=C1CSc2cccc(Cl)c2N1CC1CCCO1 (stereo not given) | Micrococcus luteus | 32
O=C1CSc2cc(Cl)ccc2N1C1CCCCC1 | Micrococcus luteus | 16
O=C1CSc2c(Cl)cccc2N1Cc1ccccc1 | Micrococcus luteus | 32
CCCCCCN1C(=O)CSc2ccc(Cl)cc21 | Micrococcus luteus | 16
CCCCCCN1C(=O)CSc2c(Cl)cccc21 | Micrococcus luteus | 32
Clc1ccccc1C(c1ccccc1)(c1ccccc1)n1ccnc1 [CLOTRIMAZOLE] | Micrococcus luteus | 512
CN[C@@H]1[C@H](O[C@H]2[C@H](O[C@H]3[C@H](O)[C@@H](O)[C@H](N=C(N)N)[C@@H](O)[C@@H]3N=C(N)N)O[C@@H](C)[C@]2(O)C=O)O[C@@H](CO)[C@H](O)[C@H]1O [STREPTOMYCIN] | Micrococcus luteus | 8
CCCCCCN1C(=O)CSc2cc(Cl)ccc21 | Micrococcus luteus | 64
CC(C)(O/N=C(\C(=O)N[C@@H]1C(=O)N2C(C(=O)[O-])=C(C[n+]3ccccc3)CS[C@H]12)c1csc(N)n1)C(=O)O [CEFTAZIDIME] | Micrococcus luteus | 16
O=C1CSc2cc(Cl)ccc2N1CC1CCCO1 (stereo not given) | Micrococcus luteus | 16
O=C1CSc2c(Cl)cccc2N1C1CCCCC1 | Micrococcus luteus | 32
O=C1CSc2ccc(Cl)cc2N1C1CCCCC1 | Micrococcus luteus | 32
CC1(C)S[C@@H]2[C@H](NC(=O)[C@H](N)c3ccccc3)C(=O)N2[C@H]1C(=O)O [AMPICILLIN] | Micrococcus luteus | 16
O=C1CSc2cccc(Cl)c2N1Cc1ccccc1 | Micrococcus luteus | 32
O=C1CSc2ccc(Cl)cc2N1Cc1ccccc1 | Micrococcus luteus | 16
O=C1CSc2c(Cl)cccc2N1CC1CCCO1 (stereo not given) | Micrococcus luteus | 32
O=C1CSc2cc(Cl)ccc2N1Cc1ccccc1 | Micrococcus luteus | 16

----------
# Test system: Candida albicans
# method_notes: Microbiostatic activity against Candida albicans ATCC 76615 after 48 hr by two-fold microdilution technique
# Type: functional
Active and inactive are the calls of the source. The calls are words filed in the database; no cut-off is given here.

structure_smiles | MIC
O=C1CSc2cccc(Cl)c2N1Cc1ccccc1 | inactive
CCCCCCN1C(=O)CSc2ccc(Cl)cc21 | inactive
CC(C)(O/N=C(\C(=O)N[C@@H]1C(=O)N2C(C(=O)[O-])=C(C[n+]3ccccc3)CS[C@H]12)c1csc(N)n1)C(=O)O | inactive

----------
# Test system: Staphylococcus aureus
# method_notes: Antibacterial activity against Staphylococcus aureus ATCC 25923 after 24 hr by two fold microdilution technique
# Type: functional
# applied_conditions: ATCC 25923, 24 h
Each record here notes measured MIC.

compound | system_name | unit_label | MIC
CCCCCCN1C(=O)CSc2cccc(Cl)c21 | Staphylococcus aureus | µg/mL | 32
O=C1CSc2ccc(Cl)cc2N1Cc1ccccc1 | Staphylococcus aureus | µg/mL | 16
Clc1ccccc1C(c1ccccc1)(c1ccccc1)n1ccnc1 | Staphylococcus aureus | µg/mL | 512
CCCCCCN1C(=O)CSc2ccc(Cl)cc21 | Staphylococcus aureus | µg/mL | 32
CC1(C)S[C@@H]2[C@H](NC(=O)[C@H](N)c3ccccc3)C(=O)N2[C@H]1C(=O)O | Staphylococcus aureus | µg/mL | 2
CCCCCCN1C(=O)CSc2cc(Cl)ccc21 | Staphylococcus aureus | µg/mL | 32
O=C1CSc2cc(Cl)ccc2N1Cc1ccccc1 | Staphylococcus aureus | µg/mL | 64
O=C1CSc2cccc(Cl)c2N1CC1CCCO1 (stereo not given) | Staphylococcus aureus | µg/mL | 32
O=C1CSc2ccc(Cl)cc2N1CC1CCCO1 (stereo not given) | Staphylococcus aureus | µg/mL | 64
O=C1CSc2c(Cl)cccc2N1Cc1ccccc1 | Staphylococcus aureus | µg/mL | 64
CC(C)(O/N=C(\C(=O)N[C@@H]1C(=O)N2C(C(=O)[O-])=C(C[n+]3ccccc3)CS[C@H]12)c1csc(N)n1)C(=O)O | Staphylococcus aureus | µg/mL | 4
O=C1CSc2cccc(Cl)c2N1Cc1ccccc1 | Staphylococcus aureus | µg/mL | 32
O=C1CSc2cc(Cl)ccc2N1CC1CCCO1 (stereo not given) | Staphylococcus aureus | µg/mL | 32
O=C1CSc2cccc(Cl)c2N1C1CCCCC1 | Staphylococcus aureus | µg/mL | 16
O=C1CSc2ccc(Cl)cc2N1C1CCCCC1 | Staphylococcus aureus | µg/mL | 32
